target_or_test_system: Polyketide synthase Pks13 (Mycobacterium tuberculosis (strain ATCC 25618 / H37Rv)) (UniProt I6X8D2)
Sequence (I6X8D2 whole entry): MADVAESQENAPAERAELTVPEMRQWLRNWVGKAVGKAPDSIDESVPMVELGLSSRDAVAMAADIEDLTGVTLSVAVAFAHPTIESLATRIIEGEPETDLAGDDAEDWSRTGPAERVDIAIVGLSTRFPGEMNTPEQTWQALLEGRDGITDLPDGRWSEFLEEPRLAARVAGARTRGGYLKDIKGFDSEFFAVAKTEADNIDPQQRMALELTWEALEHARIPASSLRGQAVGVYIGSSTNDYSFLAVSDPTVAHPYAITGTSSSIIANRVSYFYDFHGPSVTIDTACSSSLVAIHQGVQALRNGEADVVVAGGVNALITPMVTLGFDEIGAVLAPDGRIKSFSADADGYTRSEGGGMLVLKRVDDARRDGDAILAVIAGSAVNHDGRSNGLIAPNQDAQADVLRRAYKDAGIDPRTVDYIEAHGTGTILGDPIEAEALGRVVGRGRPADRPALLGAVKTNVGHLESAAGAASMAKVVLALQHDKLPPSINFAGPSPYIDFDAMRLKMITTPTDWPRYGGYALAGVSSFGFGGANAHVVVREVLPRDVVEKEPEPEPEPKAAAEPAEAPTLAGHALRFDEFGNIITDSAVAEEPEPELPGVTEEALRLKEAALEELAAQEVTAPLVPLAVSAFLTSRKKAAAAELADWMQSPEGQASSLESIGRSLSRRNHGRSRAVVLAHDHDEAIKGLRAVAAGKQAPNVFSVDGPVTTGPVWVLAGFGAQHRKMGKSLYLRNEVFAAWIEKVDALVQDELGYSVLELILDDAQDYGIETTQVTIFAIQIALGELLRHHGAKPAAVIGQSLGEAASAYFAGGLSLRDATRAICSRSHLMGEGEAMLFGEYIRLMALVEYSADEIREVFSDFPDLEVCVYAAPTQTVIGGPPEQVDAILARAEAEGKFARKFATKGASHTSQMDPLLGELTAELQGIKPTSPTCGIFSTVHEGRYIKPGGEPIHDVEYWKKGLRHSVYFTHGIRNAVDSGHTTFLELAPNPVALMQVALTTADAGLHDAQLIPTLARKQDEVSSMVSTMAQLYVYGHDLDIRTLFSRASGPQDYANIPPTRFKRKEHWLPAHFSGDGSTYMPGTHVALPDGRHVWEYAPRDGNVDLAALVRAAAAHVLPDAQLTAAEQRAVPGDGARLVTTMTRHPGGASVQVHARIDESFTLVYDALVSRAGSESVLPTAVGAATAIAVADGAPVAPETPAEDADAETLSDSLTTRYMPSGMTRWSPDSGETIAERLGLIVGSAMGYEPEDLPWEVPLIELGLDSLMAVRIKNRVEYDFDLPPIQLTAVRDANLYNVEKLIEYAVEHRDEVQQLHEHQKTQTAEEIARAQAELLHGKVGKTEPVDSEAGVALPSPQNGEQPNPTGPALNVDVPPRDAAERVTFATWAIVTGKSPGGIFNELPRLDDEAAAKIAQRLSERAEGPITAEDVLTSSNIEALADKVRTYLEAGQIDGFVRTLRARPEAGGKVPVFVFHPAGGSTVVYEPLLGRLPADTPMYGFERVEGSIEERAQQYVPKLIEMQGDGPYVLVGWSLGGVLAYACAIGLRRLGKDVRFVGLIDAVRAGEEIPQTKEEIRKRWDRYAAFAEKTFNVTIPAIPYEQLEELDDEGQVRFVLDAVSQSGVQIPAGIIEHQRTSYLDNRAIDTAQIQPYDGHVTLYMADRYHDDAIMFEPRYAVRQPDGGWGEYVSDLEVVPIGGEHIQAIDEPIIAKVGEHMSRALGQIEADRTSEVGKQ
experiment: Mycobacterium tuberculosis Polyketide synthase 13 Thioesterase (PKS13)
Assay type: functional
Set-up: scale not given: in the data most compounds retested in dose-response had high values
details: 30 µM
Screen size: about 67,000 compounds; about 300 (0.45%) showed an effect of 50% or more. The sample as a whole holds a higher share of strong results than the screen did.
measured_endpoint: Percent Effect (%)
Kindly provide the numeric value in % only, without the unit symbol.

Percent Effect measured on Cn1cc(CN2C[C@@H]3COC[C@@H](C(=O)N4CCCCO4)[C@@H]3C2)cn1 = -30.5

Data point: CC(C)c1nnc(CN2CCCC3(CC2)CN(C)C(=O)O3)o1 (centres undefined) ; Percent Effect = -10.9

For record Cc1ncc(CN)c(-c2cn(C)c3ccccc23)n1 the listed Percent Effect is 140

Note to self: Percent Effect recorded for Cc1nnc(N2C[C@@H](OCC3CCCC3)[C@H]3OCCC[C@H]32)s1 was -34.8

Memo: CCCn1c(N2CCCC2)nc2c(C)nn(C)c2c1=O , reported Percent Effect: 67

Entry COCCNC(=O)[C@@]12CCO[C@@H]1CCN(Cc1cc(C)on1)C2 ; Percent Effect = -12.3

For reference, reported Percent Effect for O=C(NCCCn1nc2ccccn2c1=O)NCc1ccccc1 stands at 2.17

Percent Effect for CN1CCc2cc(C(=O)N(C)C)c(NCC3CC3)nc2CC1 is -5.51

response.value for CN1CC2(CCCN(Cc3nnc(-c4ccccc4)o3)CC2)OC1=O (centres undefined) (field: Percent Effect) = -7.32

Percent Effect for CC(C)CCN1CCc2cc(C(=O)N(C)C)c(NCC3CC3)nc2CC1 is -8.68

Note to self: Percent Effect recorded for Cc1nc2c(cc1C(=O)O)CCN(CC1CC1)CC2 was -19.8

Form field Percent Effect, entry CC(C)Nc1nc2c(cc1C(=O)NCC1CC1)CCN(C)CC2 : 90.8

Just so you know, measured Percent Effect for COc1cc(N2C[C@@H]3COC[C@]3(COCc3cccc(C)n3)C2)ncn1 came out at -18.9

The compound identified as Cc1cc(C)cc(CN2C[C@@H]3OCCN(S(=O)(=O)N(C)C)[C@@H]3C2)c1 registered its Percent Effect at -14.4

Form: compound = O=C(c1cccs1)N1C[C@@H]2OCCN(CC3CCCO3)[C@@H]2C1 (some centres undefined) ; Percent Effect = 8.57

Recorded result, O=C(c1ccoc1)N1CC[C@@H]2O[C@@H](COCc3ccncc3)CC[C@@H]21 , Percent Effect: -10.6

Short answer for CCCn1c(N2CCCCC2)nc2c(C)nn(C)c2c1=O : Percent Effect was 14

CCNC(=O)NCCCn1nc2ccccn2c1=O has a reported Percent Effect of 0.265

What the record says about CNCc1cn(C[C@H]2C[C@@H]3CCN2C[C@@H]3C(=O)NC2CCCCC2)nn1 : Percent Effect is -24.7

Noted for Cc1ccc(N2CC[C@@H]3CN(Cc4cc[nH]n4)C[C@@H]3C2)nn1 : its Percent Effect reads 3.96

Lab note: measured Percent Effect of O=C([C@@H]1COC[C@H]2CN(CC3CCCC3)C[C@H]21)N1CCOCC1 was -31.7

Briefly, Percent Effect measured for CCCn1c(N2CCCC(C)C2)nc2c(C)nn(C)c2c1=O (centres undefined) : 3.25

# compound c1cnc(N2CCC3(CCCN(CC4CCCCC4)C3)C2)cn1 (centres undefined) ; its Percent Effect = 66.6

The compound listed as CNC(=O)c1cc2c(nc1NC(C)C)CCNCC2 has a reported Percent Effect of 73.6

Just so you know, measured Percent Effect for O=C(c1cscn1)N1C[C@@H](Oc2cccnc2)[C@H]2OCCC[C@H]21 came out at 29.5

Item: CC(C)CN1C(=O)CO[C@@H]2CN(C(=O)NC(C)C)C[C@H]21 | Percent Effect: -42.5

# compound O[C@]12CCNC[C@H]1CN(c1nccc3ccccc13)CC2 ; its Percent Effect = -2.31

Lab note: CSc1nccc(N2CCC3(CCCN(CC4CC4)C3)C2)n1 (centres undefined) gave Percent Effect of -0.995

Given item COCC(=O)N1CC[C@H]2C[C@H](c3nnc(C4CC4)o3)O[C@@H]2C1 , the value recorded as its Percent Effect is -6.34

Percent Effect reading for c1cncc(OC[C@@]23CCO[C@@H]2CCN(Cc2cccs2)C3)c1 : 12.4

So for CC1=N[C@@]2(CC[C@@H]3CN(S(C)(=O)=O)C[C@@H]32)C(=O)N1CC(C)C , the logged Percent Effect turned out to be 75.9

Percent Effect reported for this compound CS(=O)(=O)N1CCO[C@@H]2CN(Cc3ccncc3)C[C@@H]2C1 : -14.9

# Percent Effect of COc1ccc2c(c1)c(-c1nc(C)ncc1CN)cn2C = -1.61

Summary for this compound, CO[C@H]1CCN(Cc2c(C)noc2C)[C@@H]2CN(Cc3ccncc3)C[C@H]12 : Percent Effect is 13.1

For reference, reported Percent Effect for O=C1[C@@H]2CCN(CC3CCOCC3)C[C@@H]2OCCN1c1ccccc1 stands at -30.7

Record O=C(C1CCOCC1)N1C[C@H](OCc2cccnc2)[C@H]2COC[C@H]21 , field Percent Effect: -10.6

# Percent Effect (compound: Cn1cnc(S(=O)(=O)N2CCO[C@H]3[C@H](OCC4CC4)CC[C@@H]32)c1 ) is -28.3

So for C[C@H]1C[C@H]2CN(S(=O)(=O)c3ccc(F)cc3)CC[C@@H]2O1 , the logged Percent Effect turned out to be -20.4

For this compound ( CC(C)Nc1nc2c(cc1C(=O)NCC1CC1)CCN(CC1CC1)CC2 ), measured Percent Effect is 69.4

The compound listed as CCS(=O)(=O)N1CCc2cc(C(=O)N(C)C)c(NCC3CC3)nc2CC1 has a reported Percent Effect of -30.5

Per the records, this compound ( CC(C)Nc1nc2c(cc1C(=O)NCC1CC1)CCN(S(C)(=O)=O)CC2 ) has Percent Effect equal to 85.6

Record CC(=O)N1C[C@H](NC(=O)c2cscn2)[C@@H]2OCCC[C@@H]21 . Reported Percent Effect: -14.1

Note to self: Percent Effect recorded for c1cc(CN2C[C@H](OCC3CCOCC3)[C@H]3COC[C@H]32)cs1 was 1.55

Entry CN1CC2(CCCN(Cc3nnc(-c4ccco4)o3)CC2)OC1=O (centres undefined) , Percent Effect reported as 62.4
